System: MOLM14
Assay: cell viability relative to vehicle control; higher = less cytotoxic;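 also: after 48 h exposure read by CellTiter-Glo luminescence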
Settings: 10 µM; SRSF2 genotype: SRSF2 P95H/wt
Counter-ions that a name gives are not always drawn.
quantity: cell viability (%)
Give bare numbers, in %.

# molecule, result.unit, reported.result
measured = [
    ("CC(C)CCNC(=O)[C@H](CC(C)C)NC(=O)[C@H]1O[C@@H]1C(=O)O [Loxistatin Acid (E-64C)]", "%", 101),
    ("O=C(O)c1cc(=O)cc(C(=O)O)o1 [Chelidonic acid]", "%", 101),
    ("CNC(=O)c1cccc(-c2ccc3c(N4CCOC[C@@H]4C)nc(N4CCOC[C@@H]4C)nc3n2)c1 [Vistusertib (AZD2014)]", "%", 35.1),
]

Would you mind listing cell viability for each of the following molecules?
1. C=C1C(=O)O[C@H]2[C@H]1CC/C(C)=C/CC[C@@]1(C)O[C@@H]21 [Parthenolide ((-)-Parthenolide)]
2. Nc1nccc(Oc2ccc3c(C(=O)Nc4cccc(C(F)(F)F)c4)cccc3c2)n1
3. Nc1c(Br)cc(Br)cc1CN[C@H]1CC[C@H](O)CC1 [Ambroxol HCl]
4. CC1OC(OC2C(OC3CCC4(C)C(CCC5(C)C4CC=C4C6CC(C)(C)CCC6(C(=O)OC6OC(COC7OC(CO)C(O)C(O)C7O)C(O)C(O)C6O)CCC45C)C3(C)CO)OCC(O)C2O)C(O)C(O)C1O (stereo unspecified) [Dipsacoside B]

1. 1.59
2. 93.6
3. 101
4. 106

Respectfully, I request cell viability for each entry included below.
1. C[S+](CC[C@H](N)C(=O)[O-])C[C@H]1O[C@@H](n2cnc3c(N)ncnc32)[C@H](O)[C@@H]1O (stereo partly specified) [Ademetionine disulfate tosylate]
2. Cc1ccc(C(=O)O)c(O)c1 [4-Methylsalicylic acid]

112
99.7

Kindly give each listed record's cell viability.
1. CC(C)OC(=O)C(C(=O)OC(C)C)=C1SC=CS1 [Malotilate]
2. O=S1(=O)CCN(CN2CCS(=O)(=O)NC2)CN1 [Taurolidine]

1: 89.5; 2: 103

---

Tested on: MARIMO
Experiment: cell viability relative to vehicle control; higher = less cytotoxic
Details: 10 µM; SRSF2 genotype: SRSF2 wt/wt
Please provide measured cell viability for the entries that follow.
Output should be the measured figure followed by the unit it is expressed in.

# molecule, subject.of.test, cell viability
measured = [
    ("COc1ccc(C[C@@H]2c3cc(OC)c(OC)cc3CC[N@+]2(C)CCC(=O)OCCCCCOC(=O)CC[N@@+]2(C)CCc3cc(OC)c(OC)cc3[C@H]2Cc2ccc(OC)c(OC)c2)cc1OC [Cisatracurium besylate (Nimbex)]", "MARIMO", "94%"),
]

// for each molecule in input: emit cell viability
1. CCCN(CCC)C(=O)C1=Cc2ccc(-c3ccc(C(=O)N4CCCC4)cc3)cc2N=C(N)C1
2. C=C1CCN([C@H](C)[C@](O)(Cn2cncn2)c2ccc(F)cc2F)CC1
3. C[C@]12C=CC(=O)C=C1CC[C@H]1[C@@H]3C[C@@H](O)[C@](O)(C(=O)CO)[C@@]3(C)C[C@H](O)[C@@]12F

1: 25.7%; 2: 88.3%; 3: 108%

---

System: OCI-AML2
Assay: cell viability relative to vehicle control; higher = less cytotoxic
Details: 10 µM; SRSF2 genotype: wt/wt
Where a name gives a salt, the structure may show the parent alone.
Assignment: determine reported cell viability for the given compounds.
Answers are plain numbers, in %.

# compound, result.unit, cell viability
data = [
    ("CCOC(=O)/C=C\\C(=O)OCC [Diethylmaleate]", "%", 111),
    ("COCCCc1sc(-c2ccccc2)nc1C(=O)Nc1ccccc1-c1nc2cc(CN3CCCC3)cnc2s1", "%", 76.2),
    ("CCOC(=O)c1ccc(N2NC(=O)C(=Cc3ccc([N+](=O)[O-])o3)C2=O)cc1", "%", 107),
]

# batch: return cell viability for each of the 8 compounds below
1. NCc1c[nH]c(=S)n1[C@@H]1CCc2c(F)cc(F)cc2C1 [(R)-Nepicastat HCl]
2. C[n+]1c2n(c(=O)c3ccccc31)CCc1c-2[nH]c2ccccc12 [Dehydroevodiamine hydrochloride]
3. O=C(c1ccc(Nc2nccc(-c3cc4ccccc4s3)n2)cc1)N1CCC(N2CCCC2)CC1
4. Oc1ccc(-c2nc(-c3ccc(F)cc3)c(-c3ccncc3)[nH]2)cc1
5. O=C(NOCC(O)CO)c1cc(Br)c(F)c(F)c1Nc1ccc(I)cc1F (centres undefined)
6. Clc1cccc(-c2nnnn2Cc2cccnc2)c1Cl
7. CC(=O)OCC(=O)[C@@]1(O)CC[C@H]2[C@@H]3CCC4=CC(=O)C=C[C@]4(C)[C@H]3[C@@H](O)C[C@@]21C [Prednisolone acetate (Omnipred)]
8. CC(=O)CCC=C(C)CCC=C(C)CCC=C(C)CCC=C(C)C

1. 103
2. 96.2
3. 0.35
4. 106
5. 45
6. 116
7. 87
8. 84.9

Below are 6 compounds. Give each one its cell viability.
1. CCCOC(=O)c1cc(O)c(O)c(O)c1 [Propyl gallate]
2. Cc1ccc2nc(NCCN)c3ncc(C)n3c2c1
3. Nc1c(CC(=O)O)cccc1C(=O)c1ccc(Br)cc1 [Bromfenac Sodium]
4. CC(Nc1nc(N2CCCC2)nc2ccccc12)c1ccccc1 (centres undefined)
5. CC(=O)Oc1ccc2c(c1)Oc1cc(OC(C)=O)ccc1C21OC(=O)c2cc(C(=O)ON3C(=O)CCC3=O)ccc21.CC(=O)Oc1ccc2c(c1)Oc1cc(OC(C)=O)ccc1C21OC(=O)c2ccc(C(=O)ON3C(=O)CCC3=O)cc21
6. NC(=O)c1cnc(NCCc2ccc(O)c(Cl)c2)nc1NCc1ccccc1

1. 97.5
2. 13
3. 104
4. 58.2
5. 77.9
6. 13.2

Parameters: items (list). Returns: cell viability for each item.
1. CC(=O)O[C@@]12CO[C@@H]1C[C@H](O)[C@@]1(C)C(=O)[C@H](O)C3=C(C)[C@@H](OC(=O)[C@H](O)[C@@H](NC(=O)OC(C)(C)C)c4ccccc4)C[C@@](O)([C@@H](OC(=O)c4ccccc4)[C@H]21)C3(C)C [Docetaxel Trihydrate]
2. CCCC(=O)Nc1cccc(NC(=O)c2ccccc2Br)c1

1. 13.5
2. 95

---

I'd appreciate it if you could supply cell viability values for the items below.
Test system: MARIMO
Test: cell viability relative to vehicle control; higher = less cytotoxic
Details: 10 µM; SRSF2 genotype: SRSF2 P95H/wt
Counter-ions that a name gives are not always drawn.
Kindly write the number and append the unit.

# compound, cell viability
data = [
    ("CN(C)C(=O)/C(C#N)=C/c1ccc(-c2nc3cnc4[nH]ccc4c3n2C2CCCCC2)o1", "80.9%"),
    ("CN[C@@H]1[C@H](O)[C@H](NC)[C@H]2O[C@@]3(O)C(=O)C[C@@H](C)O[C@H]3O[C@@H]2[C@H]1O [Spectinomycin 2HCl]", "103%"),
    ("CC(CNC(=O)c1cccnc1)NC(=O)c1cccnc1 (stereo unspecified) [Nicaraven]", "106%"),
    ("CCC[C@@H]1C[C@@H](C(=O)N[C@@H]([C@H]2O[C@H](SC)[C@H](O)[C@@H](O)[C@H]2O)[C@H](C)Cl)N(C)C1 [Clindamycin HCl]", "94.1%"),
    ("C#CCC(Cc1cnc2nc(N)nc(N)c2n1)c1ccc(C(=O)N[C@@H](CCC(=O)O)C(=O)O)cc1 (stereo partly specified) [Pralatrexate(Folotyn)]", "109%"),
]

Continue with the next compound.
MARIMO / cell viability / CS(=O)(=O)Nc1ccc([N+](=O)[O-])cc1Oc1ccccc1 [Nimesulide] : value?
102%

---

Please provide measured cell viability for the entries that follow.
System: MOLM14
Assay: cell viability relative to vehicle control; higher = less cytotoxic
Conditions: 10 µM; SRSF2 genotype: SRSF2 P95H/wt
Numbers only, in %.

Give cell viability for each of the items listed below.
1. CO[C@H]1CC[C@H](N2C(=O)CNc3ncc(-c4ccc(C(C)(C)O)nc4)nc32)CC1
2. O=C(Oc1cc(S(=O)(=O)c2ccccc2)ccc1[N+](=O)[O-])c1ccc(Cl)cc1
3. Cc1cc(N2C[C@@H](C)N[C@@H](C)C2)ncc1-c1ccc(-c2nc3c(ccn3C)c(=O)[nH]2)cc1
4. c1coc(CNc2ncnc3[nH]cnc23)c1 [Kinetin (6-Furfuryladenine)]
5. C=CC(=O)N1CCC(Oc2cc3c(Nc4ccc(Cl)c(Cl)c4F)ncnc3cc2OC)CC1 [Poziotinib (HM781-36B)]
6. CC(C)(CO)C(O)C(=O)NCCC(=O)O [Calcium D-Panthotenate]
7. CC(=O)c1ccc(O)cc1O [2,4-Dihydroxyacetophenone]
8. CN(C/C=C/C#CC(C)(C)C)Cc1cccc2ccccc12 [Terbinafine]

1: 28.1; 2: 104; 3: 0.95; 4: 98.4; 5: 53.4; 6: 96.8; 7: 96; 8: 104
